I'd be grateful if you could share measured pIC50 for these entries.
experimental-system: SpsB (Staphylococcus aureus)
Construct: using a bacterial membrane fraction as a source of SpsB; from tissue
Sequence (P0A070 whole entry): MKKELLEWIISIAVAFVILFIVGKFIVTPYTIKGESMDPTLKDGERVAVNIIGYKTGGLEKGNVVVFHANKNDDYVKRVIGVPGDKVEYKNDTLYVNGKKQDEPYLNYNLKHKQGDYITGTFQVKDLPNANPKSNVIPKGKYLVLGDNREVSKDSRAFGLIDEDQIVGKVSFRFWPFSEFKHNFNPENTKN
test-description: Inhibition of SpsB enzyme activity (fluorescence-based assay, bacterial membrane fraction)
Type: biochemical
pIC50: −log10 of the molar value.

These recorded examples may help you get a feel for the data.
| molecule | pIC50 |
| --- | --- |
| CCCCCCCCCCc1ccc2nc(C(=O)NCCC(=O)N[C@@H](CCCCN)C(=O)N(C)[C@@H]3C(=O)N[C@@H](C)C(=O)N[C@H](C(=O)O)Cc4ccc(O)c(c4)-c4cc3ccc4O)ccc2c1 [EXAMPLE 62] | 7.30 to 8.00 |
| CCCCCCCCCc1ccc(-c2ccc3sc(C(=O)NCCC(=O)N[C@@H](CCCCN)C(=O)N(C)[C@@H]4C(=O)N[C@@H](C)C(=O)N[C@H](C(=O)O)Cc5ccc(O)c(c5)-c5cc4ccc5O)cc3c2)cc1 [EXAMPLE 45] | > 8.00 |
| CCCCCCCCCc1ccc(-c2ccc(C(=O)NCCC(=O)N[C@@H](CCCCN)C(=O)N(C)[C@@H]3C(=O)N[C@@H](C)C(=O)N[C@H](C(=O)O)Cc4ccc(O)c(c4)-c4cc3ccc4O)cc2)cc1.O=C(O)C(F)(F)F [EXAMPLE 16, trifluoroacetate] | > 8.00 |
| CCCCCCCCCc1ccc(-c2cccc3c(C(=O)NCCC(=O)N[C@@H](CCCCN)C(=O)N(C)[C@@H]4C(=O)N[C@@H](C)C(=O)N[C@H](C(=O)O)Cc5ccc(O)c(c5)-c5cc4ccc5O)cnn23)cc1 [EXAMPLE 65] | 7.30 to 8.00 |

Next:
Kindly indicate its recorded pIC50. Item: CCCCCCc1ccc(-c2ccc(C(=O)NCCC(=O)N[C@@H](CCCCN)C(=O)N(C)[C@@H]3C(=O)N[C@@H](C)C(=O)N[C@H](C(=O)O)Cc4ccc(O)c(c4)-c4cc3ccc4O)cc2)cc1 [EXAMPLE 31]
> 8.00

====

Assignment: determine reported IC50 for the given compounds.
experimental-system: SpsB (Staphylococcus aureus)
Construct: using a bacterial membrane fraction as a source of SpsB; from tissue
test-description: Inhibition of SpsB enzyme activity (fluorescence-based assay, bacterial membrane fraction)
Type: biochemical
Protocol: Signal peptidase enzyme activity was measured in a fluorescence-based assay using a bacterial membrane fraction as a source of SpsB (See Bruton et al., 2003, Eur J Med Chem 38:351-356). The SpsB substrate is a synthetic lipopeptide, decanoyl-K(DABCYL)-TPTAKA↓ASKKD-D(EDANS)—NH2 (prepared by JPT Peptide Technologies, Berlin, Germany). […] SpsB mediated cleavage of the peptide substrate was detected as an increase in fluorescence (excitation 340 nm/emission 460 nm).

| compound | IC50 |
| --- | --- |
| C[C@@H]1NC(=O)[C@@H](N(C)C(=O)[C@H](CCCCN)NC(=O)CCNC(=O)c2ccc(-c3ccc(C4C5CC6CC(C5)CC4C6)cc3)cc2)c2ccc(O)c(c2)-c2cc(ccc2O)C[C@@H](C(=O)O)NC1=O (stereo partly drawn) | < 10 nM |
| CCC[C@H]1CC[C@H](c2ccc(-c3ccc(C(=O)NCCC(=O)N[C@@H](CCCCN)C(=O)N(C)[C@@H]4C(=O)N[C@@H](C)C(=O)N[C@H](C(=O)O)Cc5ccc(O)c(c5)-c5cc4ccc5O)cc3)cc2)CC1 | < 10 nM |

Lab note: record IC50 of CCCCCCCCCc1ccc(-c2ccc(C(=O)NCCC(=O)N[C@@H](CCCN)C(=O)N(C)C3C(=O)N[C@@H](C)C(=O)N[C@H](C(=O)O)Cc4ccc(O)c(c4)-c4cc3ccc4O)cc2)cc1 (stereo partly drawn) tested on SpsB (Staphylococcus aureus).
< 10 nM
